# SYSTEM: T1, P1R-DelNt (truncated human P1R deleted for residues 24-181) (human, UniProt Q03431 182-593)
# T1 sequence (looked up): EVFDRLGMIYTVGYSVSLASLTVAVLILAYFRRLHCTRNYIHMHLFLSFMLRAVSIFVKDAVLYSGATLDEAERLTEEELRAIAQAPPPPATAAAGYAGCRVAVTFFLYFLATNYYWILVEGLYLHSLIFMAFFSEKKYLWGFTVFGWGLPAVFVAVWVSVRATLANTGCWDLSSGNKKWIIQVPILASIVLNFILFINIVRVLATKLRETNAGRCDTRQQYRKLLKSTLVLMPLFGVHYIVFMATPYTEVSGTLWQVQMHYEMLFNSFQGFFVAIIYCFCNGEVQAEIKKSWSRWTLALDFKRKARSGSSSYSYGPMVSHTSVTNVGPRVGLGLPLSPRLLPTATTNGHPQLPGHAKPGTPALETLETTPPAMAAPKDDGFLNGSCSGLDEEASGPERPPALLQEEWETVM
# ASSAY DETAILS: cell-based or functional assay
No end group written: not given here.
PROPERTY NAME: cAMP Emax (%)

1) AVAEIQLMHAR-NH2 [[Ala^10]PTH(1-11)] = 79

These measurements were taken from patent US20060229240A1.
